- Test system: MT-4 cells
- MEASUREMENT SETUP: read-out: mean 50% cytotoxicity concentration, CC50
MEASUREMENT KIND: CC50 (µM)
Supply the numeric figure in µM, leaving out any unit text.

Lookup: Bench note: what CC50 did Cc1[nH]c2ccccc2c1CC(=O)N[C@@H](Cc1ccccc1)C(=O)N(C)c1ccccc1 [PF74] show?
Found: 32.2

Where these numbers come from: paper PMC7396128
